Where do the numbers come from? From patent US12071431B2.

Readout: Kd (µM)
Please reply with the bare figure in µM and do not write the unit itself.

Tested system p38 MAPK (Homo sapiens); Kd recorded for CCOc1ccc(Oc2cc(S(=O)(=O)N(C)C)cnc2N2CCC(Oc3ccc(Cl)cc3)CC2)cc1 was 0.0119

* * *

Molecular target: Recombinant Human MAPK8 (Homo sapiens, UniProt P45983)
Sequence (P45983 whole entry): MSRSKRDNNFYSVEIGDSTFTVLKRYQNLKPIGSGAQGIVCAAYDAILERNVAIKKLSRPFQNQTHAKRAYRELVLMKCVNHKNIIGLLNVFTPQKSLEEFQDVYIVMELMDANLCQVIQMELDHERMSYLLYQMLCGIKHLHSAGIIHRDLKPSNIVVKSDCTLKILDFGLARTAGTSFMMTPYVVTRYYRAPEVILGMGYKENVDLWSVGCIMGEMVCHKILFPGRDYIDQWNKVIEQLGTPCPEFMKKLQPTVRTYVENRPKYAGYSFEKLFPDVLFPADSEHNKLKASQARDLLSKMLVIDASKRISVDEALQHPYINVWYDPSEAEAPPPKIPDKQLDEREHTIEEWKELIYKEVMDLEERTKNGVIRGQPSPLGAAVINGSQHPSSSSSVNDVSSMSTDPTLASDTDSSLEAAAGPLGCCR
Experiment: In vitro binding of JNK1 (MAPK8), SPRi
Conditions: 4° C., read-out: equilibrium dissociation constant (KD Value)
Readout: pKd
Scale: pKd equals -log10([C]), with [C] in mol/L.

Data point: CCOc1ccc(Oc2cc(S(=O)(=O)N(C)C)cnc2N2CCC(Oc3ccc(Cl)cc3)CC2)cc1 ; pKd = 7.47
